Target: UniProt:Q9HBA0
Assay: Radiometric calcium selectivity assay, CHO cells expressing human TRPV4 (4α-phorbol 12,13-didecanoate)
Details: read-out: IC50 values hTRPV4
pIC50: −log10 of the molar value.
Kindly state pIC50 for each of the entries shown.

Field: example entries. Status: answers known.
| Molecule | pIC50 |
| --- | --- |
| Cn1c(=O)c2c(ccn2CC(=O)Nc2nc(-c3ccc(OC(F)(F)F)cc3)cs2)n(C)c1=O [Compound 34] | < 5.00 |
| CC(C)COc1c(F)cc(-c2csc(NC(=O)Cc3coc4c3c(=O)n(C)c(=O)n4C)n2)cc1F [Compound 53] | < 6.00 |

Batch request: pIC50 per item, same order as input.
1. Cn1c(=O)c2c(CC(=O)Nc3nc(-c4ccc(F)c(C(F)(F)F)c4F)cs3)c(Cl)oc2n(C)c1=O [Compound 101]
2. Cn1c(=O)c2c(CC(=O)Nc3nc(-c4cc(F)cc(C(F)(F)F)c4)cs3)coc2n(C)c1=O [Compound 55]
3. Cn1c(=O)c2c(CC(=O)Nc3nc(-c4ccc(C5CCCCC5)cc4)cs3)cccc2n(C)c1=O [Compound 10]
4. Cn1c(=O)c2c(CC(=O)Nc3nc(-c4ccc(OC(F)(F)F)c(F)c4)cs3)cccc2n(C)c1=O [Compound 29]
5. Cn1nc2c(c1CC(=O)Nc1nc(-c3ccc(OC(F)(F)F)c(F)c3)cs1)c(=O)n(C)c(=O)n2C [Compound 41]

output:
["< 6.00", "< 6.00", "< 5.00", "< 5.00", "< 6.00"]

====

Kindly state IC50 for each of the entries shown.
Target: human TRPV3 (Homo sapiens (Human), UniProt Q8NET8)
Sequence (Q8NET8 whole entry): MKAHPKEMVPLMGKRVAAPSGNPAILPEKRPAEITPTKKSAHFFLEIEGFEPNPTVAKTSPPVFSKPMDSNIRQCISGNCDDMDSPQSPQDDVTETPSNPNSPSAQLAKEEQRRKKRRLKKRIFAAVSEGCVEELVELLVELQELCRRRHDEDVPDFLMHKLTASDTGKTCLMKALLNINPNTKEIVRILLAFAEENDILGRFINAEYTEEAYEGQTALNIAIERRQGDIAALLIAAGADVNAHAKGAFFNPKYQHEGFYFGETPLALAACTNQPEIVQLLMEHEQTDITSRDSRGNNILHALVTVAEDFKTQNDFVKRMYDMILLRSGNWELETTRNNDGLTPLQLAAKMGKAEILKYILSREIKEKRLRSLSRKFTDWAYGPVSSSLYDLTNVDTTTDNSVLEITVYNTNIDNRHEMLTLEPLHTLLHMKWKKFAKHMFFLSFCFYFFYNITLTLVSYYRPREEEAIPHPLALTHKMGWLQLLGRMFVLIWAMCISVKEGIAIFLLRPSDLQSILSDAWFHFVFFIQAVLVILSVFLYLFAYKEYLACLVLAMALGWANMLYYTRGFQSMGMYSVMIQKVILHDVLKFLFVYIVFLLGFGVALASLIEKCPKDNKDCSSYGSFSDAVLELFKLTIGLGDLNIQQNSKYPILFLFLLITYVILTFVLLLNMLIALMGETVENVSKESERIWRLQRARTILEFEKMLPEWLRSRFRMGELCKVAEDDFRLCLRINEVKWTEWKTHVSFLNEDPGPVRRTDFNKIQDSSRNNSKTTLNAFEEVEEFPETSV
Experiment: Radiometric calcium selectivity assay, CHO cells expressing human TRPV3 (2-aminoethoxydiphenyl borate)
Settings: read-out: IC50 values hTRPV3

| Smiles str | IC50 |
| --- | --- |
| Cn1c(=O)c2c(CC(=O)Nc3nc(-c4cccc(Cl)c4F)cs3)cccc2n(C)c1=O | > 1 µM |
| Cn1c(=O)c2c(CC(=O)Nc3nc(-c4cccc(F)c4F)cs3)cccc2n(C)c1=O | > 10 µM |
| CN1C(=O)c2c(ncn2CC(=O)Nc2nc(-c3ccc(Br)cc3)cs2)N2CCN=C12 | > 10 µM |
| CC(C)COc1ccc(-c2csc(NC(=O)Cc3cccc4c3c(=O)n(C)c(=O)n4C)n2)cc1 | > 10 µM |
| Cn1c(=O)c2c(CC(=O)Nc3nc(-c4ccc(OC(F)(F)F)c(F)c4)cs3)cccc2n(C)c1=O | > 1 µM |

Batch request: IC50 per item, same order as input.
1. CN1C(=O)c2c(ncn2CC(=O)Nc2nc(-c3ccc(C(C)(C)C)cc3)cs2)N2CCN=C12
2. Cn1c(=O)c2c(ccn2CC(=O)Nc2nc(-c3cc(Cl)c(OCCC(F)(F)F)c(Cl)c3)cs2)n(C)c1=O
3. Cn1c(=O)c2c(CC(=O)Nc3nc(-c4cc(F)c(OCC(F)(F)F)c(F)c4)cs3)ccnc2n(C)c1=O

output:
1: > 10 µM; 2: > 10 µM; 3: > 10 µM

====

Molecular target: human TRPV4 (Homo sapiens (Human))
Experiment: Radiometric calcium selectivity assay, CHO cells expressing human TRPV4 (4α-phorbol 12,13-didecanoate)
Format: cell-based
Details: read-out: IC50 values hTRPV4
Value type: IC50 (nM)
One number for each entry, in nM.

| Molecule | Unit info | Meas value |
| --- | --- | --- |
| Cn1c(=O)c2c(CC(=O)Nc3nc(-c4ccc(C(F)(F)F)c(F)c4)cs3)c(Cl)oc2n(C)c1=O [Compound 99] | nM | 1470 |

Batch request: IC50 per item, same order as input.
1. Cn1c(=O)c2c(CC(=O)Nc3nc(-c4ccc(C(F)(F)F)cc4)cs3)cccc2n(C)c1=O [Compound 11]
2. Cn1c(=O)c2c(CC(=O)Nc3nc(-c4ccc(F)c(C(F)(F)F)c4F)cs3)ccnc2n(C)c1=O [Compound 87]

output:
1. 1500
2. 2010

Batch request: IC50 per item, same order as input.
1. Cn1c(=O)c2c(CC(=O)Nc3nc(-c4ccc(F)c(C(F)(F)F)c4F)cs3)nsc2n(C)c1=O [Compound 77]
2. Cc1oc2c(c1CC(=O)Nc1nc(-c3ccc(C(F)(F)F)c(F)c3F)cs1)c(=O)n(C)c(=O)n2C [Compound 76]
3. Cn1c(=O)c2c(CC(=O)Nc3nc(-c4ccc(C(F)(F)F)c(F)c4)cs3)cccc2n(C)c1=O [Compound 18]
4. Cn1c(=O)c2c(CC(=O)Nc3nc(-c4ccc(OC(F)(F)F)c(F)c4)cs3)c(Cl)oc2n(C)c1=O [Compound 102]

output:
[553, 8920, 1320, 1350]

====

Experiment: Pharmacokinetics in guinea pig upon intra-tracheal administration
Assay type: in vivo
Details: guinea pig, other: intra-tracheal, 500 ug; Cell Pellet (BAL), 500 mcg i.t.
Value type: Tmax
Reply with the number, then its unit.

input: Fill in the blank: the reported Tmax of Cn1c(=O)c2c(CC(=O)Nc3nc(-c4ccc(F)c(C(F)(F)F)c4F)cs3)csc2n(C)c1=O is ____.
output: 15 min

====

Kindly state IC50 for each of the entries shown.
Molecular target: human TRPA1 (Homo sapiens (Human))
Sequence (O75762 whole entry): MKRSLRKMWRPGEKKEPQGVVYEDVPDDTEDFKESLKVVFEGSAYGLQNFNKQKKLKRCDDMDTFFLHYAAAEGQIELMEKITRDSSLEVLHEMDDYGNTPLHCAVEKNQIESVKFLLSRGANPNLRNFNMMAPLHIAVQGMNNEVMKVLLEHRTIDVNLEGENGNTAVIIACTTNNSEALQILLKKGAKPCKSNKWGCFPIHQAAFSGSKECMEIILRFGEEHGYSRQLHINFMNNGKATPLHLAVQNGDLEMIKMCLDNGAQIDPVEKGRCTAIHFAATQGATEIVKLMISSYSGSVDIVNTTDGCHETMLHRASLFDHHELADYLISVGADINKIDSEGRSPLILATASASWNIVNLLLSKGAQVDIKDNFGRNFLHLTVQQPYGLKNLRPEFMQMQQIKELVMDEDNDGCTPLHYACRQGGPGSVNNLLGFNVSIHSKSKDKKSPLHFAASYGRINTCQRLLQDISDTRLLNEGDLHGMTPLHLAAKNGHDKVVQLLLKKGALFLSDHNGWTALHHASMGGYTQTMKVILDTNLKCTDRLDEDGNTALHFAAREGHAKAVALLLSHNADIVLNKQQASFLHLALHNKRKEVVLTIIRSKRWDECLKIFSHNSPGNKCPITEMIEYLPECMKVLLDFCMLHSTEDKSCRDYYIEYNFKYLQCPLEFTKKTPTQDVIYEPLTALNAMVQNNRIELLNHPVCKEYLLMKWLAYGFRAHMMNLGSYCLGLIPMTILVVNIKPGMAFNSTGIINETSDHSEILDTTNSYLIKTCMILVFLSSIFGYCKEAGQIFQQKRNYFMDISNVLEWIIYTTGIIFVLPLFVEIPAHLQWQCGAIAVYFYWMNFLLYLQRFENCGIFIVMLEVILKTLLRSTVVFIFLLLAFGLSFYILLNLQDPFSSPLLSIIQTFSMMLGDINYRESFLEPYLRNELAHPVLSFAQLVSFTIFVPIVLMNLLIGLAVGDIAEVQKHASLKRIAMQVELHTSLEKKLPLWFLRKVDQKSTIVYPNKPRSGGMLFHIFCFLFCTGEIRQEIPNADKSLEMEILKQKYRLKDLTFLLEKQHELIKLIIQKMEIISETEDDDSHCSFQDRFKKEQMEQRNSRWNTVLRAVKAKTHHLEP
Experiment: 45Calcium uptake assay, AITC induced, human TRPA1 expressing CHO cells
Conditions: AITC 30 micromolar, read-out: IC50 values hTRPA1
One number for each entry, in nM.

Field: example entries. Status: answers known.
| Smiles str | IC50 (nM) |
| --- | --- |
| Cn1c(=O)c2c(CC(=O)Nc3nc(-c4ccc(OC(F)(F)F)c(F)c4)cs3)c(Cl)oc2n(C)c1=O | 7.67 |
| Cc1oc2c(c1CC(=O)Nc1nc(-c3ccc(Cl)c(OC(F)(F)F)c3)cs1)c(=O)n(C)c(=O)n2C | 9.04 |
| Cn1c(=O)c2c(CC(=O)Nc3nc(-c4ccc(F)c(C(F)(F)F)c4F)cs3)ccnc2n(C)c1=O | 19.3 |
| Cn1c(=O)c2c(CC(=O)Nc3nc(-c4ccc(C5CCCCC5)cc4)cs3)cccc2n(C)c1=O | 46.7 |
| Cn1c(=O)c2c(CC(=O)Nc3nc(-c4cccc(C(F)(F)F)c4)cs3)cccc2n(C)c1=O | 47.4 |

Batch request: IC50 per item, same order as input.
1. Cn1c(=O)c2c(CC(=O)Nc3nc(-c4ccc(F)c(C(F)(F)F)c4F)cs3)cccc2n(C)c1=O
2. CC(C)COc1c(F)cc(-c2csc(NC(=O)Cc3coc4c3c(=O)n(C)c(=O)n4C)n2)cc1F
3. Cn1c(=O)c2c(ccn2CC(=O)Nc2nc(-c3cc(Cl)c(OCCC(F)(F)F)c(Cl)c3)cs2)n(C)c1=O
4. Cc1ccc(-c2csc(NC(=O)Cc3cccc4c3c(=O)n(C)c(=O)n4C)n2)cc1
5. Cn1c(=O)c2c(cnn2CC(=O)Nc2nc(-c3cc(F)c(OCC(C)(C)C)c(F)c3)cs2)n(C)c1=O

output:
[17.3, 18.2, 18.1, 97.4, 22.8]

Batch request: IC50 per item, same order as input.
1. CN1C(=O)c2c(ncn2CC(=O)Nc2nc(-c3ccc(Br)cc3)cs2)N2CCN=C12
2. Cn1c(=O)c2c(CC(=O)Nc3nc(-c4ccc(OC(F)(F)F)c(F)c4)cs3)nsc2n(C)c1=O
3. Cc1oc2c(c1CC(=O)Nc1nc(-c3ccc(OC(F)(F)F)c(F)c3)cs1)c(=O)n(C)c(=O)n2C
4. Cn1c(=O)c2c(CC(=O)Nc3nc(-c4ccc(C(F)(F)F)c(F)c4F)cs3)cccc2n(C)c1=O
5. Cn1c(=O)c2c(CC(=O)Nc3nc(-c4ccc(C(F)(F)F)c(F)c4)cs3)coc2n(C)c1=O
6. Cc1oc2c(c1CC(=O)Nc1nc(-c3cc(F)cc(C(F)(F)F)c3)cs1)c(=O)n(C)c(=O)n2C

output:
921
8.04
12.6
6.49
17.7
2.93

====

Kindly state pIC50 for each of the entries shown.
Target: human TRPV4 (Homo sapiens (Human), UniProt Q9HBA0)
Sequence (Q9HBA0 whole entry): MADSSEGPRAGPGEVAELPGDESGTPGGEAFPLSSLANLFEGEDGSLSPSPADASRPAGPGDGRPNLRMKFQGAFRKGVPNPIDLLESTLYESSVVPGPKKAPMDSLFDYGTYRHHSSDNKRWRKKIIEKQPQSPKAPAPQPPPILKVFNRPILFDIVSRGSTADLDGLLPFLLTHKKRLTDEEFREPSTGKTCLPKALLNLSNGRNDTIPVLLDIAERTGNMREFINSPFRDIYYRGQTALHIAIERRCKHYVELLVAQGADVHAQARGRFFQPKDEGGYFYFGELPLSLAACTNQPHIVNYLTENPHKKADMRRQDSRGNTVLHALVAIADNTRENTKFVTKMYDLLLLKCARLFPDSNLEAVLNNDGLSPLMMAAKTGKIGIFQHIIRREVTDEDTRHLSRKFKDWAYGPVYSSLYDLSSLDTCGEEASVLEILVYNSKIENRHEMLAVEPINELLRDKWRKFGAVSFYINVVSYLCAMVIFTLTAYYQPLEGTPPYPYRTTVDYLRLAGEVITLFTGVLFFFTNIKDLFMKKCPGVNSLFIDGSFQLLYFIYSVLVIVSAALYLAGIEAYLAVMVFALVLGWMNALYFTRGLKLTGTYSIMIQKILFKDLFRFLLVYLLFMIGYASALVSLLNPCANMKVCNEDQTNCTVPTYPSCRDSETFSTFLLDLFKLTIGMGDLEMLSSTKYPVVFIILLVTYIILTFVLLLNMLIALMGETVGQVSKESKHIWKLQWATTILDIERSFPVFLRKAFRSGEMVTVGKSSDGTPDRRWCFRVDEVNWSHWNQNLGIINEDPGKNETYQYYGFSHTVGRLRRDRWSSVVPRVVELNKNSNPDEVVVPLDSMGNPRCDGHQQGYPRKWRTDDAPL
Experiment: Radiometric calcium selectivity assay, CHO cells expressing human TRPV4 (4α-phorbol 12,13-didecanoate)
Details: read-out: IC50 values hTRPV4
pIC50: −log10 of the molar value.

| Molecule | pIC50 |
| --- | --- |
| Cn1c(=O)c2c(CC(=O)Nc3nc(-c4ccc(OC(F)F)c(Cl)c4)cs3)cccc2n(C)c1=O [Compound 30] | < 5.00 |
| CC(C)c1sc2c(c1CC(=O)Nc1nc(-c3ccc(C(F)(F)F)c(F)c3)cs1)c(=O)n(C)c(=O)n2C [Compound 46] | < 5.00 |
| Cn1c(=O)c2c(CC(=O)Nc3nc(-c4ccc(C(C)(C)C)cc4)cs3)cccc2n(C)c1=O [Compound 12] | < 6.00 |
| Cn1c(=O)c2c(CC(=O)Nc3nc(-c4cccc(C(F)(F)F)c4F)cs3)nsc2n(C)c1=O [Compound 79] | 6.08 |
| Cn1c(=O)c2c(CC(=O)Nc3nc(-c4cc(F)c(CCC(F)(F)F)c(F)c4)cs3)coc2n(C)c1=O [Compound 56] | < 6.00 |

Batch request: pIC50 per item, same order as input.
1. CN1C(=O)c2c(ncn2CC(=O)Nc2nc(-c3ccc(C(C)(C)C)cc3)cs2)N2CCN=C12 [Compound 2]
2. COCCCOc1cccc(C2NC(=S)NC3=C2C(=O)c2ccccc23)c1 (stereo not shown) [Compound 90]

output:
1. 5.42
2. < 5.00
